These measurements were taken from patent US9109001B2.

measurement.protocol: Stability in simulated intestinal fluid
Assay type: in vitro ADME
condition: 100 μM, 2 hours at 37° C.; percent of peak area at time zero
true if Stability SIF is below 70%. false if not; exact matches included in false.

1) CCOc1nc(N)nc2c1ncn2[C@@H]1O[C@@H]2COP(=O)(N[C@@H](C)C(=O)OC3CCCC3)O[C@H]2[C@@]1(C)F (single isomer, unassigned) [Compound 10 Diastereomer 1] : true
2) CCOc1nc(N)nc2c1ncn2[C@@H]1O[C@@H]2COP(=O)(N[C@@H](C)C(=O)OC3CCCC3)O[C@H]2[C@@]1(C)F (single isomer, unassigned) [Compound 10 Diastereomer 2] : true
3) CCOc1nc(N)nc2c1ncn2[C@@H]1O[C@@H]2COP(=O)(NCCC(=O)OC(C)C)O[C@H]2[C@@]1(C)F (single isomer, unassigned) [Compound 2 Diastereomer 1] : false
4) CCOc1nc(N)nc2c1ncn2[C@@H]1O[C@@H]2COP(=O)(N[C@@H](C)COC(=O)C(C)C)O[C@H]2[C@@]1(C)F (single isomer, unassigned) [Compound 3 Diastereomer 2] : true
5) CCOC(=O)C(C)(C)NP1(=O)OC[C@H]2O[C@@H](n3cnc4c(OCC)nc(N)nc43)[C@](C)(F)[C@@H]2O1 (single isomer, unassigned) [Compound 7 Diastereomer 1] : false
6) CCOc1nc(N)nc2c1ncn2[C@@H]1O[C@@H]2COP(=O)(N[C@@H](C)C(=O)OCC(C)C)O[C@H]2[C@@]1(C)F (single isomer, unassigned) [Compound 4 Diastereomer 1] : true
7) CCOc1nc(N)nc2c1ncn2[C@@H]1O[C@@H]2COP(=O)(N[C@@H](C)C(=O)OC(C)C)O[C@H]2[C@@]1(C)F (single isomer, unassigned) [Compound 1 Diastereomer 2] : true
8) CCOc1nc(N)nc2c1ncn2[C@@H]1O[C@@H]2COP(=O)(NCCC(=O)OC(C)C)O[C@H]2[C@@]1(C)F (single isomer, unassigned) [Compound 2 Diastereomer 2] : false
9) CCOc1nc(N)nc2c1ncn2[C@@H]1O[C@@H]2COP(=O)(N[C@@H](C)C(=O)OC(C)C)O[C@H]2[C@@]1(C)F (single isomer, unassigned) [Compound 1 Diastereomer 1] : false
10) CCOc1nc(N)nc2c1ncn2[C@@H]1O[C@@H]2COP(=O)(N[C@@H](C)C(=O)OC(C)C)O[C@H]2[C@@]1(C)O (single isomer, unassigned) [Compound 5 Diastereomer 2] : false
11) CCOc1nc(N)nc2c1ncn2[C@@H]1O[C@@H]2COP(=O)(N[C@@H](C)C(=O)OC(C)C)O[C@H]2[C@@]1(C)O (single isomer, unassigned) [Compound 5 Diastereomer 1] : true
12) CCOC(=O)C(C)(C)NP1(=O)OC[C@H]2O[C@@H](n3cnc4c(OCC)nc(N)nc43)[C@](C)(F)[C@@H]2O1 (single isomer, unassigned) [Compound 7 Diastereomer 2] : false
13) CCOc1nc(N)nc2c1ncn2[C@@H]1O[C@@H]2COP(=O)(N[C@@H](CC)COC(=O)C(C)C)O[C@H]2[C@@]1(C)F (single isomer, unassigned) [Compound 8 Diastereomer 1] : true

----------
Below: a set of entries, each annotated with reported Stability WB_Mouse (ice; 1 hr).
measurement.protocol: Stability in mouse blood
Type: in vitro ADME
condition: on ice, percent unchanged test compound
quantity.measured: Stability WB_Mouse (ice; 1 hr) (%)

1) CCOc1nc(N)nc2c1ncn2[C@@H]1O[C@@H]2COP(=O)(N[C@@H](C)C(=O)OCC(C)C)O[C@H]2[C@@]1(C)F (single isomer, unassigned) [Compound 4 Diastereomer 1] : 1
2) CCOc1nc(N)nc2c1ncn2[C@@H]1O[C@@H]2COP(=O)(N[C@@H](C)C(=O)OC(C)C)O[C@H]2[C@@]1(C)F (single isomer, unassigned) [Compound 1 Diastereomer 1] : 92
3) CCOc1nc(N)nc2c1ncn2[C@@H]1O[C@@H]2COP(=O)(NCCC(=O)OC(C)C)O[C@H]2[C@@]1(C)F (single isomer, unassigned) [Compound 2 Diastereomer 1] : 15

----------
measurement.protocol: Stability in fresh human whole blood
Format: in vitro ADME
condition: 0.5 μM, percent unchanged test compound
quantity.measured: Stability WB_Human (37° C.; 2 hr) (%)

1. CCOc1nc(N)nc2c1ncn2[C@@H]1O[C@@H]2COP(=O)(NCCC(=O)OC(C)C)O[C@H]2[C@@]1(C)F (single isomer, unassigned) [Compound 2 Diastereomer 2] : 91
2. CCOc1nc(N)nc2c1ncn2[C@@H]1O[C@@H]2COP(=O)(N[C@@H](C)C(=O)OC(C)C)O[C@H]2[C@@]1(C)F (single isomer, unassigned) [Compound 1 Diastereomer 1] : 87
3. CCOc1nc(N)nc2c1ncn2[C@@H]1O[C@@H]2COP(=O)(NCCC(=O)OC(C)C)O[C@H]2[C@@]1(C)F (single isomer, unassigned) [Compound 2 Diastereomer 1] : 98
4. CCOc1nc(N)nc2c1ncn2[C@@H]1O[C@@H]2COP(=O)(N[C@@H](C)C(=O)OCC(C)C)O[C@H]2[C@@]1(C)F (single isomer, unassigned) [Compound 4 Diastereomer 2] : 1
5. CCOc1nc(N)nc2c1ncn2[C@@H]1O[C@@H]2COP(=O)(N[C@@H](CC)COC(=O)C(C)C)O[C@H]2[C@@]1(C)F (single isomer, unassigned) [Compound 8 Diastereomer 1] : 18
6. CCOc1nc(N)nc2c1ncn2[C@@H]1O[C@@H]2COP(=O)(N[C@@H](C)C(=O)OC(C)C)O[C@H]2[C@@]1(C)O (single isomer, unassigned) [Compound 5 Diastereomer 2] : 83
7. CCOc1nc(N)nc2c1ncn2[C@@H]1O[C@@H]2COP(=O)(N[C@@H](C)C(=O)OCC(C)C)O[C@H]2[C@@]1(C)F (single isomer, unassigned) [Compound 4 Diastereomer 1] : 77
8. CCOc1nc(N)nc2c1ncn2[C@@H]1O[C@@H]2COP(=O)(N[C@@H](C)C(=O)OC(C)C)O[C@H]2[C@@]1(C)F (single isomer, unassigned) [Compound 1 Diastereomer 2] : 67
9. CCOc1nc(N)nc2c1ncn2[C@@H]1O[C@@H]2COP(=O)(N[C@@H](C)C(=O)OC(C)C)O[C@H]2[C@@]1(C)O (single isomer, unassigned) [Compound 5 Diastereomer 1] : 87
10. CCOc1nc(N)nc2c1ncn2[C@@H]1O[C@@H]2COP(=O)(N[C@@H](CC)COC(=O)C(C)C)O[C@H]2[C@@]1(C)F (single isomer, unassigned) [Compound 8 Diastereomer 2] : 1

----------
Tested on: HCV genotype 1b replicon
measurement.protocol: HCV Replicon Assay
Format: cell-based
condition: Zluc (Huh-7-derived) cells, HCV genotype 1b replicon, luciferase reporter, 72 hours; read-out: HCV Replicon EC50
quantity.measured: EC50

1. CCOC(=O)C(C)(C)NP1(=O)OC[C@H]2O[C@@H](n3cnc4c(OCC)nc(N)nc43)[C@](C)(F)[C@@H]2O1 (single isomer, unassigned) [Compound 7 Diastereomer 2] : < 250 nM
2. CCOc1nc(N)nc2c1ncn2[C@@H]1O[C@@H]2COP(=O)(NCCC(=O)OC(C)C)O[C@H]2[C@@]1(C)F (single isomer, unassigned) [Compound 2 Diastereomer 2] : 250 to 1000 nM
3. CCOc1nc(N)nc2c1ncn2[C@@H]1O[C@@H]2COP(=O)(N[C@@H](C)C(=O)OCC(C)C)O[C@H]2[C@@]1(C)F (single isomer, unassigned) [Compound 4 Diastereomer 2] : < 250 nM
4. CCOc1nc(N)nc2c1ncn2[C@@H]1O[C@@H]2COP(=O)(N[C@@H](C)C(=O)OC(C)C)O[C@H]2[C@@]1(C)O (single isomer, unassigned) [Compound 5 Diastereomer 1] : 250 to 1000 nM
5. CCOc1nc(N)nc2c1ncn2[C@@H]1O[C@@H]2COP(=O)(N[C@@H](C)C(=O)OC(C)C)O[C@H]2[C@@]1(C)F (single isomer, unassigned) [Compound 1 Diastereomer 2] : < 250 nM

----------
Tested on: HCV genotype 1b replicon
measurement.protocol: HCV Replicon Assay
Assay type: cell-based
condition: Hepatitis C virus, Huh-7, Table 6; genotype 1b HCV replicon-bearing Huh-7 cells; read-out: EC50
pEC50: −log10 of the molar value.
quantity.measured: pEC50

1) CC(C)OC(=O)[C@H](C)N[P@](=O)(OC[C@H]1O[C@@H](n2ccc(=O)[nH]c2=O)[C@](C)(F)[C@@H]1O)Oc1ccccc1 (single isomer, unassigned) : 6.60

----------
measurement.protocol: Stability in fresh human whole blood
Type: in vitro ADME
condition: 0.5 μM, percent unchanged test compound
quantity.measured: Stability WB_Human (37° C.; 2 hr) (%)

1) CCOC(=O)C(C)(C)NP1(=O)OC[C@H]2O[C@@H](n3cnc4c(OCC)nc(N)nc43)[C@](C)(F)[C@@H]2O1 (single isomer, unassigned) [Compound 7 Diastereomer 2] : 36
2) CCOc1nc(N)nc2c1ncn2[C@@H]1O[C@@H]2COP(=O)(N[C@@H](C)COC(=O)C(C)C)O[C@H]2[C@@]1(C)F (single isomer, unassigned) [Compound 3 Diastereomer 2] : 1
3) CCOc1nc(N)nc2c1ncn2[C@@H]1O[C@@H]2COP(=O)(N[C@@H](C)C(=O)OC3CCCC3)O[C@H]2[C@@]1(C)F (single isomer, unassigned) [Compound 10 Diastereomer 2] : 80
4) CCOc1nc(N)nc2c1ncn2[C@@H]1O[C@@H]2COP(=O)(N[C@@H](C)C(=O)OC3CCCC3)O[C@H]2[C@@]1(C)F (single isomer, unassigned) [Compound 10 Diastereomer 1] : 5
5) CCOC(=O)C(C)(C)NP1(=O)OC[C@H]2O[C@@H](n3cnc4c(OCC)nc(N)nc43)[C@](C)(F)[C@@H]2O1 (single isomer, unassigned) [Compound 7 Diastereomer 1] : 96
